These entries and their values trace back to paper PMC7887271.

Provide the recorded bioavailability for the entries that follow.
# test protocol: Pharmacokinetic studies in mice (IV and PO)
# Assay type: in vivo, female CD-1 mice
# condition info: female, CD-1, plasma; mouse, PO 10 mg kg^−1 vs IV 1 mg kg^−1; read-out: Bioavailability (F%)
Give bare numbers, in %.

>  <compound>
CN(C)CCn1ccc2c(ccn2Cc2ccc(F)c(Br)c2)c1=O [CTCB-508]

>  <test result>
119

$$$$

Shift focus to the following entry.
Task item: Which bioavailability value is on record for CN(C)CCn1ccc2c(ccn2Cc2ccc(Cl)c(Br)c2)c1=O [CTCB-470] ?
Reply: 24

---

Can you tell me % Cell viability for the items I'm about to list?
# System: T. b. brucei GVR35-Luc2
# test protocol: T. b. brucei GVR35-Luc2 time-to-kill assay (luciferin)
# Type: cell-based
# condition info: GVR35 TTK, 24 h sheet; summary line marked "4"
Numbers only, in %.

>  <molecule>
Cc1ccc(C(=O)Nc2ccc(S(=O)(=O)O)c3cc(S(=O)(=O)O)cc(S(=O)(=O)O)c23)cc1NC(=O)c1cccc(NC(=O)Nc2cccc(C(=O)Nc3cc(C(=O)Nc4ccc(S(=O)(=O)O)c5cc(S(=O)(=O)O)cc(S(=O)(=O)O)c45)ccc3C)c2)c1 [Suramin, suramin]

>  <% Cell viability (%)>
1.08

$$$$
>  <molecule>
CN(C)CCn1ccc2c(ccn2Cc2ccc(Cl)c(Cl)c2)c1=O [CTCB-405]

>  <% Cell viability (%)>
-0.0937

$$$$
>  <molecule>
CC1(C)OB(O)c2cc(NC(=O)c3ccc(F)cc3C(F)(F)F)ccc21 [SCYX-7158]

>  <% Cell viability (%)>
-0.085

$$$$

Lab note: next molecule to report on.
Task item: What value of measured % Cell viability is listed for CNCCn1ccc2c(ccn2Cc2ccc(Cl)c(Cl)c2)c1=O [CTCB-435] ?
Reply: -0.137

---

# Test system: bloodstream form of T. brucei strain Lister 427
# test protocol: T. b. brucei 427 growth inhibition assay (LILiT, Alamar Blue)
# Type: cell-based
# condition info: Trypanosoma brucei, Glycerol 0 mM; read-out: EC50
readout kind: EC50 (nM)
Give bare numbers, in nM.

>  <molecule>
CN(C)CCn1ccc2c(ccn2Cc2ccc(Cl)c(Br)c2)c1=O [CTCB-470]

>  <units symbol>
nM

>  <test result>
230

$$$$

Please look at the following molecule next.
Task item: Which EC50 is reported for this molecule? CN(C)CCn1ccc2c(ccn2Cc2ccc(Cl)c(Cl)c2)c1=O [CTCB-405]
Reply: 270

---

# system name: CYP2D6 (Homo sapiens, UniProt P10635)
# Construct: purchased BD Biosciences
# Sequence (P10635 whole entry): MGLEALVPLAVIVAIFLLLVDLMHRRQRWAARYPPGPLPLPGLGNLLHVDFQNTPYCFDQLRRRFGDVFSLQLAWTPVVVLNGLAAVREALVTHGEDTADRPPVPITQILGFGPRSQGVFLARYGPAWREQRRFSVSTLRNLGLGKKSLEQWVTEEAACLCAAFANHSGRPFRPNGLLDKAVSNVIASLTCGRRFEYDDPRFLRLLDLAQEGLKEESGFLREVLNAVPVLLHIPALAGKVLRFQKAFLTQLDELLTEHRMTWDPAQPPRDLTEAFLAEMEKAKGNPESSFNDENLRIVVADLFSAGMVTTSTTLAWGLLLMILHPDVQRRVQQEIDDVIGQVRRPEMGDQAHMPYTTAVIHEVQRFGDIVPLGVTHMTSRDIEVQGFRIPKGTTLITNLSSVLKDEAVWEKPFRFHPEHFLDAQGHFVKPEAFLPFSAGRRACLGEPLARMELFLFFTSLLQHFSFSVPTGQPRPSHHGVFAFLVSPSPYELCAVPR
# test protocol: Inhibition of CYP2D6
# Assay type: in vitro ADME
# condition info: CYP450 isoform inhibition kit (BD Biosciences), probe AMMC
readout kind: inhibition at 10 µM (%)
One number for each entry, in %.

Task item: Look at this compound and give its reported inhibition at 10 µM. CN(C)CCn1ccc2c(ccn2Cc2ccc(Cl)c(Cl)c2)c1=O
Reply: 60

---

# system name: T. brucei phosphofructokinase (TbPFK) (Trypanosoma brucei brucei, UniProt O15648)
# Construct: made in house; host or cells: Escherichia coli C41 (pET28a, codon optimised gene)
# Sequence (O15648 whole entry): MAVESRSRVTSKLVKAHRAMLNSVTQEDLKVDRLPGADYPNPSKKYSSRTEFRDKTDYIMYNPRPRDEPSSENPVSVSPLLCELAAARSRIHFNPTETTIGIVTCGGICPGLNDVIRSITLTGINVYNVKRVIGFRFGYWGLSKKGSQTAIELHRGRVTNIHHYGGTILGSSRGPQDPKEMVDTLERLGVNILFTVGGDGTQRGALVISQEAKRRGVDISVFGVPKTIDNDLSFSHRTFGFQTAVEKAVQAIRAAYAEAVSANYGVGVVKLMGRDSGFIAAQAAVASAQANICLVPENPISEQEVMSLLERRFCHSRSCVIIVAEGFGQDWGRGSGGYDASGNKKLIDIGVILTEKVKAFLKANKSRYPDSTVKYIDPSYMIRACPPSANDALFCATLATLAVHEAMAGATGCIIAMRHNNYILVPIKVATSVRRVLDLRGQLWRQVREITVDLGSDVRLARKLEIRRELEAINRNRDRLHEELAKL
# test protocol: ADP-Glo assay for measuring PFK inhibition
# Type: biochemical
# condition info: IC50 (µM) for inhibition of T. brucei phosphofructokinase (PFK IC50), ADP-Glo; mean ± SD
readout kind: IC50 (µM)
Numbers only, in µM.

Task item: Reported IC50 for Clc1ccc(Cn2ccnc2)cc1Cl : what is it?
Reply: 0.83

---

Kindly supply the reported pIC50 values for the records listed here.
# system name: T. brucei phosphofructokinase (TbPFK) (Trypanosoma brucei brucei, UniProt O15648)
# Construct: made in house; host or cells: Escherichia coli C41 (pET28a, codon optimised gene)
# test protocol: ADP-Glo assay for measuring PFK inhibition
# Type: biochemical
# condition info: source data for Fig. 2 and Table 1; read-out: Average IC50
Give bare numbers, as −log10 of the molar value.

Consider the following illustrative entries.
>  <molecule>
O=c1[nH]ccc2c1ccn2Cc1ccc(Cl)c(Cl)c1 [CTCB-360]

>  <pIC50>
7.15

$$$$
>  <molecule>
NCCn1ccc2c(ccn2Cc2ccc(Cl)c(Cl)c2)c1=O [CTCB-421]

>  <pIC50>
7.47

$$$$
>  <molecule>
CNC[C@@H](C)n1ccc2c(ccn2Cc2ccc(Cl)c(Cl)c2)c1=O [CTCB-481]

>  <pIC50>
6.92

$$$$
>  <molecule>
Clc1ccc(Cn2cnc3cnccc32)cc1Cl [CTCB107]

>  <pIC50>
6.22

$$$$
>  <molecule>
CC(CN)n1ccc2c(ccn2Cc2ccc(Cl)c(Cl)c2)c1=O (stereo not shown) [CTCB-457]

>  <pIC50>
6.96

$$$$
>  <molecule>
CN(C)CCn1ccc2c(ccn2Cc2ccc(Cl)c(Br)c2)c1=O [CTCB-470]

>  <pIC50>
6.68

$$$$

Task item: Fill in the blank: the reported pIC50 of CNCCn1ccc2c(ccn2Cc2ccc(Cl)c(Cl)c2)c1=O [CTCB-435] is ____.
Reply: 6.92

---

This document collects IC50 values reported for Human hERG (Homo sapiens).
One number for each entry, in µM.

>  <compound structure>
CN(C)CCn1ccc2c(ccn2Cc2ccc(Cl)c(Br)c2)c1=O

>  <system name>
Human hERG (Homo sapiens)
Sequence (Q12809 whole entry): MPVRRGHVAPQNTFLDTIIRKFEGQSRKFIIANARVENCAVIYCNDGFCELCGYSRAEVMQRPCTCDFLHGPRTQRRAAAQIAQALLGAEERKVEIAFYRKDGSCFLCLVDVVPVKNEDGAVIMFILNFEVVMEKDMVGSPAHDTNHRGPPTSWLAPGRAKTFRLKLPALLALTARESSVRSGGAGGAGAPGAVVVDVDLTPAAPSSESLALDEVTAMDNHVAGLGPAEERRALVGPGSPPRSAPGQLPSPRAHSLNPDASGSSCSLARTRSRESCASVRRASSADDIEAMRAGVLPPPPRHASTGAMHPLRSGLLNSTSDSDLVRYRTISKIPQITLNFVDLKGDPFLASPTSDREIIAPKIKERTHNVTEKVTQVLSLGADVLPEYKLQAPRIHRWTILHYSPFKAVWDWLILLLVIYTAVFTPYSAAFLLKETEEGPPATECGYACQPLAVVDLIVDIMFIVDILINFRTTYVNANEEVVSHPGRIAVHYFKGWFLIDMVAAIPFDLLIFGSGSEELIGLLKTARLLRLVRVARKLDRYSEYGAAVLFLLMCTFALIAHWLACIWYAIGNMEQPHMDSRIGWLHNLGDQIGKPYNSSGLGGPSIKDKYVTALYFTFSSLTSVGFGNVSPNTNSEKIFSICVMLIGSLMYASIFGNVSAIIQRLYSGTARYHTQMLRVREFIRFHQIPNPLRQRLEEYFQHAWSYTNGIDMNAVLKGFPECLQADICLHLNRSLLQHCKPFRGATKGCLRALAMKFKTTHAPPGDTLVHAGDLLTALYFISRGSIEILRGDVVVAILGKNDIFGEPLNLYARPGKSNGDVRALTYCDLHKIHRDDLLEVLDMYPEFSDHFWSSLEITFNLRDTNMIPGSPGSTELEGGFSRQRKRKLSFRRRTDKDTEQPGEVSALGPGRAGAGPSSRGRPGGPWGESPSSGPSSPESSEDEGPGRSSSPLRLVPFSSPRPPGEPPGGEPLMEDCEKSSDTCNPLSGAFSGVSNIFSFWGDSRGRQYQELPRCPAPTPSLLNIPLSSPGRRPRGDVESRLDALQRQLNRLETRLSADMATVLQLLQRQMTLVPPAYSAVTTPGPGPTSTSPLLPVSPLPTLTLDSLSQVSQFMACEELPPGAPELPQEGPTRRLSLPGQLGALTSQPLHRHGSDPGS

>  <IC50 (µM)>
1.69

$$$$
>  <compound structure>
CN(C)CCn1ccc2c(ccn2Cc2ccc(F)c(Br)c2)c1=O

>  <system name>
Human hERG (Homo sapiens)

>  <IC50 (µM)>
4.75

$$$$

Task item: Give Human hERG (Homo sapiens) IC50 for CN(C)CCn1ccc2c(ccn2Cc2ccc(Cl)c(Cl)c2)c1=O
Reply: 3.98

---

# test protocol: Plasma protein binding, mouse plasma
# Type: in vitro ADME
# condition info: percentage bound, read-out: mouse plasma protein binding value (converted)
readout kind: fraction unbound at 4 h, 10 µM
Give bare numbers.

>  <compound>
CN(C)CCn1ccc2c(ccn2Cc2ccc(Cl)c(Br)c2)c1=O [CTCB-470]

>  <readout kind>
fraction unbound at 4 h, 10 µM

>  <test result>
0.058

$$$$

Task item: I am curious: what fraction unbound at 4 h, 10 µM value has been reported for CN(C)CCn1ccc2c(ccn2Cc2ccc(Cl)c(Cl)c2)c1=O [CTCB-405] ?
Reply: 0.06

---

# Tested on: T. b. brucei GVR35-Luc2
# test protocol: T. b. brucei GVR35-Luc2 time-to-kill assay (luciferin)
# Type: cell-based
# condition info: GVR35 TTK, 24 h incubation; from average
Assign % Inhibition to each entry below.
One number for each entry, in %.

See these solved cases before continuing.
>  <compound structure>
CSc1ccc(OCc2ncc([N+](=O)[O-])n2C)cc1

>  <system name>
T. b. brucei GVR35-Luc2

>  <test result>
83

$$$$
>  <compound structure>
CC1(C)OB(O)c2cc(NC(=O)c3ccc(F)cc3C(F)(F)F)ccc21

>  <system name>
T. b. brucei GVR35-Luc2

>  <test result>
100

$$$$
>  <compound structure>
Cc1ccc(C(=O)Nc2ccc(S(=O)(=O)O)c3cc(S(=O)(=O)O)cc(S(=O)(=O)O)c23)cc1NC(=O)c1cccc(NC(=O)Nc2cccc(C(=O)Nc3cc(C(=O)Nc4ccc(S(=O)(=O)O)c5cc(S(=O)(=O)O)cc(S(=O)(=O)O)c45)ccc3C)c2)c1

>  <system name>
T. b. brucei GVR35-Luc2

>  <test result>
99

$$$$

Would you mind listing % Inhibition for each of the following compounds?
1. CNCCn1ccc2c(ccn2Cc2ccc(Cl)c(Cl)c2)c1=O
2. CN(C)CCn1ccc2c(ccn2Cc2ccc(Cl)c(Cl)c2)c1=O

Reply:
1: 100; 2: 100

---

# Tested on: bloodstream form of T. brucei strain Lister 427
# test protocol: T. b. brucei 427 growth inhibition assay (LILiT, Alamar Blue)
# Assay type: cell-based
# condition info: Trypanosoma brucei, Glycerol 0.75 mM; read-out: EC50
Consider the following compounds; for each one, report its EC50.
Numbers only, in nM.

Example compounds with recorded EC50:
>  <compound structure>
CN(C)CCn1ccc2c(ccn2Cc2ccc(F)c(Br)c2)c1=O

>  <readout kind>
EC50

>  <test result>
310

$$$$
>  <compound structure>
CN(C)CCn1ccc2c(ccn2Cc2ccc(Cl)c(Br)c2)c1=O

>  <readout kind>
EC50

>  <test result>
260

$$$$

Shifting focus to the compound that follows.
Task item: Form field: reported EC50 of CN(C)CCn1ccc2c(ccn2Cc2ccc(Cl)c(Cl)c2)c1=O
Reply: 330

---

# system name: T. brucei phosphofructokinase (TbPFK) (Trypanosoma brucei brucei, UniProt O15648)
# Construct: made in house; host or cells: Escherichia coli C41 (pET28a, codon optimised gene)
# test protocol: ADP-Glo assay for measuring PFK inhibition
# Assay type: biochemical
# condition info: Average IC50 (µM), source data for Fig. 2 and Table 1
Would you kindly list IC50 for each of these compounds?
One number for each entry, in µM.

>  <compound>
Clc1ccc(Cn2ccnc2)cc1Cl [CTCB-12]

>  <readout kind>
IC50

>  <test result>
0.83

$$$$

Task item: Which IC50 reading was recorded for the compound O=C(Cc1ccc(Cl)c(Cl)c1)Nc1ccc(S(=O)(=O)Nc2ccon2)cc1 [CTCB-001] ?
Reply: 0.25
